test: Antiproliferative activity against human SGC7901 cells measured after 72 hrs by MTT assay; assay type: functional, cell-based; settings: SGC-7901, 72 h
// returns not met unless IC50 is strictly below 7 µM, in which case met

| Item smiles | Label |
| --- | --- |
| COc1ccc(-c2ssc(=O)c2-c2cc(OC)c(OC)c(OC)c2)cc1 | met |
| COc1ccc(-c2c(-c3cc(OC)c(OC)c(OC)c3)ssc2=O)cc1 | not met |
| COc1ccc(-c2ssc(=S)c2-c2cc(OC)c(OC)c(OC)c2)cc1[N+](=O)[O-] | not met |
| COc1ccc(-c2ss/c(=N/O)c2-c2cc(OC)c(OC)c(OC)c2)cc1 | not met |
| COc1ccc(-c2c(-c3cc(OC)c(OC)c(OC)c3)ss/c2=N/O)cc1 | not met |
| CO/N=c1/ssc(-c2cc(OC)c(OC)c(OC)c2)c1-c1ccc(OC)c(N)c1 | met |
| COc1ccc(-c2c(-c3cc(OC)c(OC)c(OC)c3)ssc2=S)cc1 | met |
| COc1ccc(-c2ssc(=O)c2-c2cc(OC)c(OC)c(OC)c2)cc1[N+](=O)[O-] | met |
| COc1ccc(-c2ssc(=S)c2-c2cc(OC)c(OC)c(OC)c2)cc1O | met |
| COc1ccc(/C=C\c2cc(OC)c(OC)c(OC)c2)cc1O | met |
| CO/N=c1/ssc(-c2ccc(OC)c(O)c2)c1-c1cc(OC)c(OC)c(OC)c1 | not met |
| COc1ccc(-c2c(-c3cc(OC)c(OC)c(OC)c3)ssc2=O)cc1[N+](=O)[O-] | not met |
| COc1ccc(-c2c(-c3cc(OC)c(OC)c(OC)c3)ssc2=O)cc1N | not met |
| COc1ccc(-c2ssc(=O)c2-c2cc(OC)c(OC)c(OC)c2)cc1N | met |
| COc1ccc(-c2c(-c3cc(OC)c(OC)c(OC)c3)ssc2=S)cc1[N+](=O)[O-] | not met |
| COc1ccc(-c2ssc(=O)c2-c2cc(OC)c(OC)c(OC)c2)cc1O | met |
| COc1ccc(-c2ssc(=S)c2-c2cc(OC)c(OC)c(OC)c2)cc1 | not met |
| COc1ccc(-c2c(-c3cc(OC)c(OC)c(OC)c3)ssc2=S)cc1N | met |
| COc1ccc(-c2c(-c3cc(OC)c(OC)c(OC)c3)ss/c2=N/O)cc1[N+](=O)[O-] | met |
| CO/N=c1/ssc(-c2ccc(OC)c(N)c2)c1-c1cc(OC)c(OC)c(OC)c1 | not met |
| COc1ccc(-c2ss/c(=N/O)c2-c2cc(OC)c(OC)c(OC)c2)cc1N | met |
